experiment description: yeast display, Sf9 membrane polyspecificity reagent, FACS + sequencing; frameworks hold sequencing errors
readout: polyreactivity (PSR sort gate)

Known results for sequences:
- sequence: "QVQLVESGGALVQAGGSLRLSCAASGYIFDRYAMGWYRQAPGKEWELVAAISGRGGSTYYADSVKGRFTISRDNAKNTVYLQMNSLKPEDTAVYYCAAARSWHLYHRYDYWGQGTQVTVSS"
  polyreactivity (PSR sort gate): "high polyreactivity"
- sequence: "QVQLVESGGGLVQAGGSLRLSCAASGRIFIINALGWYRQAPGKERELVAAINTGGGTNYADSVKGRFTISRDNAKNTVYLQMNSLKPEDTAVYYCAARTYDYRARHKDGYWGQGTQVTVSS"
  polyreactivity (PSR sort gate): "high polyreactivity"
- sequence: "QDQLVESGGGLVQAGGSLRLSCAASGRTCGYYTMGWYRQAPGKERELVATISSDGTTNYADSVKGRFTISRDNAKNTVYLQMNSLKQEDTAGYYCNADFRLQYYYRIYDYWGQGTQVTVSS"
  polyreactivity (PSR sort gate): "low polyreactivity"
- sequence: "QVLLVDSGGGLVQAGGSLRLSCAASGRIFGPYTMARYIQAPGPERELVAAISWSGGSTYYADSVKGRFTISRDNAKNNVFLQMNSLKPEDSAVYYCNAYHPFPQYEGGSWGQGTQVTVSS"
  polyreactivity (PSR sort gate): "low polyreactivity"
- sequence: "QVQLVESGGGLVQAGGSLRLSCAASGFTIRWYLMGWYRQAPGKERELVAAISWSGDRTYYADSVKGRFTISRDNAKNTVYLQMNSLKPEDTAVYYCNSLSAFQVDNYDYWGQGTQVTVSS"
  polyreactivity (PSR sort gate): "high polyreactivity"

polyreactivity (PSR sort gate) lookup needed for "QVQLVESGGGLGQAGGSLRLSCPASGITFVYYAMGWYRQSPGKERELVATITKSGVSTYYADSVKGRFTISRDNAKYTVYLQMNSLKPEDTAVYYCAKDVSYRFYWTYDYWGQGTQVTVSS" , thanks.
low polyreactivity

polyreactivity (PSR sort gate) lookup needed for "QVQLVEAGGGLVQAGGSLRLSCASSGRIFPFNAMGRYRQAPGKEREFVAAIRLSGTRKYYADSVKGRFTISRDNAKNTVYLQMNSLKPEDTAVYYCAAKYSGHYYNYDYWGQGTQVTVSS" , thanks.
high polyreactivity

* * *

experiment description: yeast display, Sf9 membrane polyspecificity reagent, FACS + sequencing; frameworks hold sequencing errors
readout: polyreactivity (PSR sort gate)

Known results for sequences:
- sequence: "QVQLVESGGGLVQAGGSLRLSCAASGRTFYFNAMGWYRQAPGKERELVAAISGGGRTYYADSVKGRFTISRDNAKNTVYLQMNSLKPEDTAVYYCNVRRWYTYPLEKSNYWGQGTQVTVSS"
  readout: "polyreactivity (PSR sort gate)"
  reported value: "high polyreactivity"
- sequence: "QVKVVESGGGLVQAGGSLRLSCAASGSIYVGYAMGWYRQAPGKERELVAAISWSGDSTYYADSVKGRFTISRDNAKNTVYLQMNSLKPEDTAVYYCAVDYAEIGPRREFEYDYWGQGTQVTVSS"
  readout: "polyreactivity (PSR sort gate)"
  reported value: "low polyreactivity"
- sequence: "QVQLVESGGGLVQAGGSLRLSCAASGFIFCPNDMGWYRQAPGKERELVADISGTGGGTYADSVKGRFTISRDNAKNTVYLQMNSLKPEDTAVYYCAALYGLYVSPYWYTGYYWGQGTQVTVSS"
  readout: "polyreactivity (PSR sort gate)"
  reported value: "low polyreactivity"
- sequence: "QDQLVESGGGLVQAGGSLRLICASSGSNFESNTMGWYRQAPGKERELLAAINWSGGRTYYADSVKGRFSISRDNAKNTVYLQINSLKPEDTAVYYCATGTYSDYKLGQQLWGRYNYWGQGTQVSVSS"
  readout: "polyreactivity (PSR sort gate)"
  reported value: "high polyreactivity"

Let's switch to this sequence now.
polyreactivity (PSR sort gate) lookup needed for "QVQLVESGGGKVQAGGSLRLSCAAYGIIFYPYDMGWNRQSPAKERELVAAISIGGGSTYYADSVKGRFTISRDNAKNTVYLQMNSLKPEDNAVYYCAAGTPYGILGYYYWGQGSQVTVSS" , thanks.
low polyreactivity
